// reported CC50 per item
- assayMethodText: NOVARTIS: Cytotoxicity against human hepatocellular carcinoma cell line (Huh7)
- Format: toxicity, cell-based, Huh-7
- experimentalParameters: Huh7 cells (hepatocellular carcinoma cell line)

Before answering, review these 3 worked examples.
{"smilesRepresentation": "CCn1c(SCCNC(=O)CC(C)C)nc(-c2ccccc2)c1-c1ccccc1", "experimentalValue": "> 9.92 µM"}
{"smilesRepresentation": "CCN(CC)C(=O)COc1ccccc1CNCc1ccccc1", "experimentalValue": "> 10 µM"}
{"smilesRepresentation": "Cc1oc2c(cc(NS(=O)(=O)c3ccc(F)cc3)c3ccccc32)c1C(=O)OCc1ccccc1", "experimentalValue": "> 100 µM"}

Inquiry: Answer with the recorded CC50 of Cc1ccc(-c2nc3cc(NC(=O)c4ccc([N+](=O)[O-])o4)ccc3o2)cc1Br only.
Reply text: 74 µM

Inquiry: Answer with the recorded CC50 of N#Cc1c(NC(=O)COc2ccc(F)cc2F)sc2c1CCC2 only.
Reply text: > 10 µM

----------
// reported CC50 per item
- assayMethodText: NOVARTIS: Cytotoxicity against human hepatocellular carcinoma cell line (Huh7)
- Format: toxicity, cell-based, Huh-7
- experimentalParameters: Huh7 cells (hepatocellular carcinoma cell line)

Before answering, review these 9 worked examples.
{"compound": "CCN(c1ccc(F)cc1)S(=O)(=O)c1ccc2[nH]cc(C(=O)NC(C)(C)C)c(=O)c2c1", "readoutKind": "CC50", "experimentalValue": "> 10 µM"}
{"compound": "CCN(CC)CCCC(C)Nc1cc(C=Cc2ccc([N+](=O)[O-])cc2)nc2cc(OC)ccc12 (stereo not given)", "readoutKind": "CC50", "experimentalValue": "20.2 µM"}
{"compound": "CCOC(=O)c1ccc2c(c1)[n+](CC)c(/C=C/N(C)c1ccccc1)n2CC", "readoutKind": "CC50", "experimentalValue": "34.4 µM"}
{"compound": "O=C(Nc1ccc2c(c1)S(=O)(=O)c1cc(NC(=O)c3cccs3)ccc1-2)c1cccs1", "readoutKind": "CC50", "experimentalValue": "> 10 µM"}
{"compound": "Cc1cc(N2CCN(C/C=C/c3ccccc3)CC2)n2c(nc3ccccc32)c1C#N", "readoutKind": "CC50", "experimentalValue": "> 10 µM"}
{"compound": "Cc1cc(C)c2cc(CN(CCN(C)C)C(=S)NCCCN(C)C)c(=O)[nH]c2c1", "readoutKind": "CC50", "experimentalValue": "> 100 µM"}
{"compound": "O=C1C(NC2CCCC2)=C(N2CCOCC2)C(=O)c2ccccc21", "readoutKind": "CC50", "experimentalValue": "37.9 µM"}
{"compound": "C[N+](C)(C)c1nc(N2CCOCC2)nc(N(c2ccccc2)c2ccccc2)n1", "readoutKind": "CC50", "experimentalValue": "> 10 µM"}
{"compound": "Cc1cc(C)cc(-n2c(C)cc(/C=C3/SC(=Nc4ccc(Br)cc4)NC3=O)c2C)c1", "readoutKind": "CC50", "experimentalValue": "> 10 µM"}

Inquiry: Answer with the recorded CC50 of Cc1ccc(C)c(-c2csc(Nc3ccc(C)c(C)c3)n2)c1 only.
Reply text: > 100 µM

----------
- assayMethodText: NOVARTIS: Cytotoxicity against human hepatocellular carcinoma cell line (Huh7)
- Type: toxicity, cell-based, Huh-7
- experimentalParameters: Huh7 cells (hepatocellular carcinoma cell line)
readoutKind: CC50

Before answering, review these 3 worked examples.
{"compound": "O=C1C(Cc2ccccc2)N=C2c3ccccc3N=C(SCc3ccc(Cl)cc3)N12 (stereo not given)", "CC50": "> 10 µM"}
{"compound": "CC(C)CNC(=O)c1cnc(NCCC2CCCN2C)nc1NCCc1ccccc1 (stereo not given)", "CC50": "> 10 µM"}
{"compound": "CN(C)c1ccc(C=C2SC(=N)N(c3nccs3)C2=O)cc1", "CC50": "> 100 µM"}

Inquiry: Answer with the recorded CC50 of O=C(CCCc1nc(-c2ccccc2)no1)NCc1cccnc1 only.
Reply text: > 10 µM

Inquiry: Answer with the recorded CC50 of OC(c1cc(C(F)(F)F)nc2c(C(F)(F)F)cccc12)C1CCCCN1 (stereo not given) only.
Reply text: 18.9 µM

Inquiry: Answer with the recorded CC50 of COc1ccc(CC(=O)NCCCCNc2ccnc3cc(Cl)ccc23)cc1 only.
Reply text: 4.5 µM

Inquiry: Answer with the recorded CC50 of COc1ccc(-c2cc(=O)c3c(O)cc(OC4OC(COC5OC(C)C(O)C(O)C5O)C(O)C(O)C4O)cc3o2)cc1 (stereo not given) only.
Reply text: > 100 µM

Inquiry: Answer with the recorded CC50 of O=C1c2ccc(-c3nc(-c4ccccc4)[nH]c3-c3ccccc3)cc2-c2cc(-c3[nH]c(-c4ccccc4)nc3-c3ccccc3)ccc21 only.
Reply text: > 100 µM

Inquiry: Answer with the recorded CC50 of CC(C)(C)Cc1ccc(OCCCC(=O)Nc2ccc(Cl)c(N)c2)c(CC(C)(C)C)c1 only.
Reply text: > 100 µM

Inquiry: Answer with the recorded CC50 of CCc1ccc(C(=O)N(CC(=O)Nc2cc(C(C)(C)C)nn2-c2ccc(Cl)c(Cl)c2)C(C)C)cc1 only.
Reply text: 87.8 µM

----------
- assayMethodText: NOVARTIS: Cytotoxicity against human hepatocellular carcinoma cell line (Huh7)
- Assay type: toxicity, cell-based, Huh-7
- experimentalParameters: Huh7 cells (hepatocellular carcinoma cell line)
// reported CC50 per item

Before answering, review these 4 worked examples.
{"molecule": "CC(=O)OC(OC(C)=O)C12C=CC(O1)C1C(=O)N(c3cccc(C)c3)C(=O)C12 (stereo not given)", "CC50": "> 10 µM"}
{"molecule": "CCCCCCc1cc2cc(-c3nc4ccccc4[nH]3)c(=Nc3ccccc3C)oc2cc1O", "CC50": "> 100 µM"}
{"molecule": "N#CC1=C(N)Oc2c(c(=O)oc3ccccc23)C1c1ccoc1 (stereo not given)", "CC50": "> 10 µM"}
{"molecule": "CC(=O)Nc1nc(C)c(-c2csc(Nc3ccc(Br)cc3)n2)s1", "CC50": "38.1 µM"}

Okay, next one:
Inquiry: Answer with the recorded CC50 of CCCCCN(C(=O)c1cccc([N+](=O)[O-])c1)C(CC)c1nc2ccccc2c(=O)n1-c1ccccc1OC (stereo not given) only.
Reply text: > 10 µM

----------
- System: Plasmodium falciparum
- assayMethodText: NOVARTIS: Inhibition of Plasmodium falciparum W2 (drug-resistant) proliferation in erythrocyte-based infection assay
- Type: functional, organism-based
- experimentalParameters: Plasmodium falciparum, W2; read-out: EC50
readoutKind: log10(EC50) (log10 of the value in nM)
Parameter value (number): base-10 log of EC50 in nM.

Before answering, review these 5 worked examples.
{"compound": "O=C1C(Nc2ccccc2)=C(N2CCCCC2)C(=O)c2ccccc21", "log10(EC50)": 2.77}
{"compound": "O=C(Nc1cc(C(F)(F)F)cc(C(F)(F)F)c1)Nc1ccc(Cl)c(Cl)c1", "log10(EC50)": 2.97}
{"compound": "CC[n+]1c(C=C2C=C(C)CC(C)C2)sc2ccccc21 (stereo unspecified)", "log10(EC50)": 2.48}
{"compound": "CCN1/C(=C/c2ccc3ccccc3[n+]2CC)Sc2sc3ccccc3c21", "log10(EC50)": 2.13}
{"compound": "COC(=O)C1=C(C)NC2=C(C(=O)CC(c3ccccc3Cl)C2)C1c1ccc(OC)c(OC)c1 (stereo unspecified)", "log10(EC50)": 2.68}

Inquiry: Answer with the recorded log10(EC50) of CC[n+]1c(/C=C/C=C2\N(C)c3ccccc3C2(C)C)n(Cc2ccccc2)c2ccccc21 only.
Reply text: 2.34

Inquiry: Answer with the recorded log10(EC50) of O=C(Nc1ccc(Cl)c(Cl)c1)Nc1cc(C(=O)NCCCN2CCCCCC2)ccc1Cl only.
Reply text: 3.15

----------
- assayMethodText: NOVARTIS: Cytotoxicity against human hepatocellular carcinoma cell line (Huh7)
- Format: toxicity, cell-based, Huh-7
- experimentalParameters: Huh7 cells (hepatocellular carcinoma cell line)
// reported CC50 per item

Before answering, review these 5 worked examples.
{"compound": "CC[C@@H](C(=O)[C@@H](C)C(O)[C@H](C)CCc1ccc(C)c(O)c1C(=O)O)C1O[C@](CC)(C2CC[C@](O)(CC)[C@H](C)O2)C[C@@H]1C (stereo partly specified)", "CC50": "> 10 µM"}
{"compound": "CCCCCCN(C(=O)Nc1ccccc1OC)C(C)c1nc2ccccc2c(=O)n1-c1ccccc1OCC (stereo unspecified)", "CC50": "> 10 µM"}
{"compound": "CC1(C)CC(=O)c2cc(-c3ccc(Br)cc3)n(-c3ccccc3F)c2C1", "CC50": "> 10 µM"}
{"compound": "COc1ccc(CN2C[C@H](Sc3nc4ccccc4[nH]3)C[C@H]2C(=O)NC2CC2)cc1C", "CC50": "16.5 µM"}
{"compound": "CCOC(=O)C1(Cc2ccc(OC)cc2)CCN(C(=O)c2scc3c2OCCO3)CC1", "CC50": "> 100 µM"}

Inquiry: Answer with the recorded CC50 of CCOC(=O)C1=C(N)n2c(sc(=Cc3cccnc3)c2=O)=C(C(=O)OC)C1c1cccnc1 (stereo unspecified) only.
Reply text: > 10 µM

Inquiry: Answer with the recorded CC50 of COCCN(Cc1cc2ccc(F)cc2nc1N1CCCCCC1)C(=O)c1ccoc1 only.
Reply text: > 100 µM

Inquiry: Answer with the recorded CC50 of O=C(O)c1ccc([C@@H]2Nc3c(ccc4ccccc34)[C@@H]3C=CC[C@@H]32)cc1 only.
Reply text: > 10 µM

Inquiry: Answer with the recorded CC50 of CC(C)CNC(=O)c1cnc(NCCC2CCCN2C)nc1NCC1CCCCC1 (stereo unspecified) only.
Reply text: > 10 µM

Inquiry: Answer with the recorded CC50 of C(#Cc1ccccc1)C[N+]1(CC#Cc2ccc(C#CC[N+]3(CC#Cc4ccccc4)CCCCC3)cc2)CCCCC1 only.
Reply text: > 100 µM

Inquiry: Answer with the recorded CC50 of COc1ccc2nc(C)cc(Nc3ccc(Oc4ccc(Br)c5ccccc45)c(Cl)c3)c2c1 only.
Reply text: 18.3 µM
